Source: patent US8143212B2

Assay: clinical
Conditions: human, in vivo, 500 mg, AUC0-day14
reported property: AUC (µg·h/mL)
Numbers only, in µg·h/mL.

Query: Returns the measured AUC for the input molecule. Input: CN[C@H]1C(=O)N[C@@H]2Cc3ccc(cc3)Oc3cc4cc(c3O[C@@H]3O[C@H](C(=O)O)[C@@H](O)[C@H](O)[C@H]3NC(=O)CCCCCCCCC(C)C)Oc3ccc(cc3Cl)[C@@H](O)[C@@H]3NC(=O)[C@H](NC(=O)[C@@H]4NC(=O)[C@@H](NC2=O)c2cc(cc(O)c2Cl)Oc2cc1ccc2O)c1ccc(O)c(c1)-c1c(O[C@H]2O[C@H](CO)[C@@H](O)[C@H](O)[C@@H]2O)cc(O)cc1[C@@H](C(=O)NCCCN(C)C)NC3=O
Reply: 10400

----------
Experiment: clinical
Settings: human, in vivo, 500 mg, AUC14
reported property: AUC (µg·h/mL)
One number for each entry, in µg·h/mL.

Query: Bench note: what AUC did CN[C@H]1C(=O)N[C@@H]2Cc3ccc(cc3)Oc3cc4cc(c3O[C@@H]3O[C@H](C(=O)O)[C@@H](O)[C@H](O)[C@H]3NC(=O)CCCCCCCCC(C)C)Oc3ccc(cc3Cl)[C@@H](O)[C@@H]3NC(=O)[C@H](NC(=O)[C@@H]4NC(=O)[C@@H](NC2=O)c2cc(cc(O)c2Cl)Oc2cc1ccc2O)c1ccc(O)c(c1)-c1c(O[C@H]2O[C@H](CO)[C@@H](O)[C@H](O)[C@@H]2O)cc(O)cc1[C@@H](C(=O)NCCCN(C)C)NC3=O [Dalbavancin] show?
Reply: 11000

----------
Assay: in vitro
Format: cell-based, S. aureus
Details: mouse, serum
reported property: fraction unbound
Numbers only.

Query: I'd like to know its fraction unbound. The compound in question is CN[C@H]1C(=O)N[C@@H]2Cc3ccc(cc3)Oc3cc4cc(c3O[C@@H]3O[C@H](C(=O)O)[C@@H](O)[C@H](O)[C@H]3NC(=O)CCCCCCCCC(C)C)Oc3ccc(cc3Cl)[C@@H](O)[C@@H]3NC(=O)[C@H](NC(=O)[C@@H]4NC(=O)[C@@H](NC2=O)c2cc(cc(O)c2Cl)Oc2cc1ccc2O)c1ccc(O)c(c1)-c1c(O[C@H]2O[C@H](CO)[C@@H](O)[C@H](O)[C@@H]2O)cc(O)cc1[C@@H](C(=O)NCCCN(C)C)NC3=O
Reply: 0.004

----------
Test system: gram positive bacteria
Test: MIC by broth microdilution (NCCLS), with or without 30% bovine serum (Table 42)
Format: cell-based
Details: Streptococcus pyrogenes SKF 13400
reported property: MIC

test_smiles=CN[C@H]1C(=O)N[C@@H]2Cc3ccc(cc3)Oc3cc4cc(c3O[C@@H]3O[C@H](C(=O)O)[C@@H](O)[C@H](O)[C@H]3NC(=O)CCCCCCCC(C)C)Oc3ccc(cc3Cl)[C@@H](O)[C@@H]3NC(=O)[C@H](NC(=O)[C@@H]4NC(=O)[C@@H](NC2=O)c2cc(cc(O)c2Cl)Oc2cc1ccc2O)c1ccc(O)c(c1)-c1c(O[C@H]2O[C@H](CO)[C@@H](O)[C@H](O)[C@@H]2O)cc(O)cc1[C@@H](C(=O)NCCCN(C)C)NC3=O reported_property=MIC result="0.015 µg/mL"
test_smiles=C[C@@H]1[C@H](O)[C@@H](C)/C=C/C=C/C=C/C=C/C=C/C=C/C=C/[C@H](O[C@@H]2O[C@H](C)[C@@H](O)[C@H](N)[C@@H]2O)C[C@@H]2O[C@](O)(C[C@@H](O)C[C@@H](O)[C@H](O)CC[C@@H](O)C[C@@H](O)CC(=O)O[C@H]1C)C[C@H](O)[C@H]2C(=O)O reported_property=MIC result="32 µg/mL"
test_smiles=CN[C@H]1C(=O)N[C@@H]2Cc3ccc(cc3)Oc3cc4cc(c3O[C@@H]3O[C@H](C(=O)O)[C@@H](O)[C@H](O)[C@H]3NC(=O)CCCCCCCCC(C)C)Oc3ccc(cc3Cl)[C@@H](O)[C@@H]3NC(=O)[C@H](NC(=O)[C@@H]4NC(=O)[C@@H](NC2=O)c2cc(cc(O)c2Cl)Oc2cc1ccc2O)c1ccc(O)c(c1)-c1c(O[C@H]2O[C@H](CO)[C@@H](O)[C@H](O)[C@@H]2O)cc(O)cc1[C@@H](C(=O)NCCCN(C)C)NC3=O reported_property=MIC result="≦0.06 mg/L"
test_smiles=CCCCCCCCCCCC(=O)N[C@H]1[C@H](Oc2c3cc4cc2Oc2ccc(cc2Cl)[C@@H](O)[C@@H]2NC(=O)[C@H](NC(=O)[C@@H]4NC(=O)[C@H]4NC(=O)[C@@H](Cc5ccc(cc5)O3)NC(=O)[C@H](NC)c3ccc(O)c(c3)Oc3cc(O)c(Cl)c4c3)c3ccc(O)c(c3)-c3c(O[C@H]4O[C@H](CO)[C@@H](O)[C@H](O)[C@@H]4O)cc(O)cc3[C@@H](C(=O)NCCCN(C)C)NC2=O)O[C@H](C(=O)O)[C@@H](O)[C@@H]1O reported_property=MIC result="≦0.06 mg/L"

----------
Test: clinical
Details: human, in vivo, 500 mg, Vss
reported property: Vd (L)
Answers are plain numbers, in L.

Query: Item CN[C@H]1C(=O)N[C@@H]2Cc3ccc(cc3)Oc3cc4cc(c3O[C@@H]3O[C@H](C(=O)O)[C@@H](O)[C@H](O)[C@H]3NC(=O)CCCCCCCCC(C)C)Oc3ccc(cc3Cl)[C@@H](O)[C@@H]3NC(=O)[C@H](NC(=O)[C@@H]4NC(=O)[C@@H](NC2=O)c2cc(cc(O)c2Cl)Oc2cc1ccc2O)c1ccc(O)c(c1)-c1c(O[C@H]2O[C@H](CO)[C@@H](O)[C@H](O)[C@@H]2O)cc(O)cc1[C@@H](C(=O)NCCCN(C)C)NC3=O has what recorded Vd?
Reply: 13.2

----------
System: gram positive bacteria
Assay: MIC by broth microdilution (NCCLS), with or without 30% bovine serum (Table 42)
Format: cell-based
Settings: S. aureus Smith + 30% BS
Please go through the items and note down their MIC.

test_smiles=CC1(C)S[C@@H]2[C@H](NC(=O)Cc3ccccc3)C(=O)N2[C@H]1C(=O)O reported_property=MIC result="0.06 µg/mL"
test_smiles=CN[C@H]1C(=O)N[C@@H]2Cc3ccc(cc3)Oc3cc4cc(c3O[C@@H]3O[C@H](C(=O)O)[C@@H](O)[C@H](O)[C@H]3NC(=O)CCCCCCCCC(C)C)Oc3ccc(cc3Cl)[C@@H](O)[C@@H]3NC(=O)[C@H](NC(=O)[C@@H]4NC(=O)[C@@H](NC2=O)c2cc(cc(O)c2Cl)Oc2cc1ccc2O)c1ccc(O)c(c1)-c1c(O[C@H]2O[C@H](CO)[C@@H](O)[C@H](O)[C@@H]2O)cc(O)cc1[C@@H](C(=O)NCCCN(C)C)NC3=O reported_property=MIC result="2 µg/mL"
test_smiles=C[C@@H]1[C@H](O)[C@@H](C)/C=C/C=C/C=C/C=C/C=C/C=C/C=C/[C@H](O[C@@H]2O[C@H](C)[C@@H](O)[C@H](N)[C@@H]2O)C[C@@H]2O[C@](O)(C[C@@H](O)C[C@@H](O)[C@H](O)CC[C@@H](O)C[C@@H](O)CC(=O)O[C@H]1C)C[C@H](O)[C@H]2C(=O)O reported_property=MIC result=">64 µg/mL"
test_smiles=CCCCCCCCCCCC(=O)N[C@H]1[C@H](Oc2c3cc4cc2Oc2ccc(cc2Cl)[C@@H](O)[C@@H]2NC(=O)[C@H](NC(=O)[C@@H]4NC(=O)[C@H]4NC(=O)[C@@H](Cc5ccc(cc5)O3)NC(=O)[C@H](NC)c3ccc(O)c(c3)Oc3cc(O)c(Cl)c4c3)c3ccc(O)c(c3)-c3c(O[C@H]4O[C@H](CO)[C@@H](O)[C@H](O)[C@@H]4O)cc(O)cc3[C@@H](C(=O)NCCCN(C)C)NC2=O)O[C@H](C(=O)O)[C@@H](O)[C@@H]1O reported_property=MIC result="2 µg/mL"

# evaluate next
Query: Form field: reported MIC of CN[C@H]1C(=O)N[C@@H]2Cc3ccc(cc3)Oc3cc4cc(c3O[C@@H]3O[C@H](C(=O)O)[C@@H](O)[C@H](O)[C@H]3NC(=O)CCCCCCCC(C)C)Oc3ccc(cc3Cl)[C@@H](O)[C@@H]3NC(=O)[C@H](NC(=O)[C@@H]4NC(=O)[C@@H](NC2=O)c2cc(cc(O)c2Cl)Oc2cc1ccc2O)c1ccc(O)c(c1)-c1c(O[C@H]2O[C@H](CO)[C@@H](O)[C@H](O)[C@@H]2O)cc(O)cc1[C@@H](C(=O)NCCCN(C)C)NC3=O
Reply: 1 µg/mL

----------
Assay: clinical
Settings: human, in vivo, 1120 mg, CL
reported property: clearance (mL/min)
Answers are plain numbers, in mL/min.

Query: Given the entry CN[C@H]1C(=O)N[C@@H]2Cc3ccc(cc3)Oc3cc4cc(c3O[C@@H]3O[C@H](C(=O)O)[C@@H](O)[C@H](O)[C@H]3NC(=O)CCCCCCCCC(C)C)Oc3ccc(cc3Cl)[C@@H](O)[C@@H]3NC(=O)[C@H](NC(=O)[C@@H]4NC(=O)[C@@H](NC2=O)c2cc(cc(O)c2Cl)Oc2cc1ccc2O)c1ccc(O)c(c1)-c1c(O[C@H]2O[C@H](CO)[C@@H](O)[C@H](O)[C@@H]2O)cc(O)cc1[C@@H](C(=O)NCCCN(C)C)NC3=O [Dalbavancin] , report its measured clearance.
Reply: 0.728
